Molecular target: Cytochrome P450 2C8 (Homo sapiens)
Sequence (P10632 whole entry): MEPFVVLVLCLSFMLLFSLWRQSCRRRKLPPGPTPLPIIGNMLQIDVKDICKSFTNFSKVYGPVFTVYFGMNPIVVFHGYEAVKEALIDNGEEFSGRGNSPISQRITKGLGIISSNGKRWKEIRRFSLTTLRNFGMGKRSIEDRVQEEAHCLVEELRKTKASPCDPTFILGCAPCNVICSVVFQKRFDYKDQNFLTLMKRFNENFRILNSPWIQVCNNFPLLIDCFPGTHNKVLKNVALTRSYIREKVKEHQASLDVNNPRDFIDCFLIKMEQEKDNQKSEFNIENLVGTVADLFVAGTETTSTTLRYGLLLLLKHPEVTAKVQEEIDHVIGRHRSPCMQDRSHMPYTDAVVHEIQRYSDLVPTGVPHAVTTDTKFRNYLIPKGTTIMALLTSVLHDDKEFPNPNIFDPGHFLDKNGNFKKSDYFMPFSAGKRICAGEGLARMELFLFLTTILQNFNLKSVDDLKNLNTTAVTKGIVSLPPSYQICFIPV
pIC50: −log10 of the molar value.
The entries below pair compounds with pIC50 values for Cytochrome P450 2C8 (Homo sapiens), as found in several publications.

>  <COMPOUND>
CN(C)C(=O)c1ccc(OCCCCC[C@H]2CC[C@]3(CC2)COC(C)(C)C3)cc1

>  <VALUE MEASURED>
< 5.00

$$$$
>  <COMPOUND>
O=C(O)C1CN(Cc2ccc(-c3noc(-c4onc(-c5ccccn5)c4C(F)(F)F)n3)cc2)C1

>  <VALUE MEASURED>
< 4.40

$$$$
>  <COMPOUND>
CCCCCC[C@@H]1CCc2cc([C@H]3CC[C@](N)(CO)C3)ccc2C1

>  <VALUE MEASURED>
5.30

$$$$
>  <COMPOUND>
C/C(CN(C[C@H]1Cc2ccccc2CN1)[C@H]1CCCc2cccnc21)=C(/F)CN

>  <VALUE MEASURED>
4.74

$$$$

Which pIC50 is listed for COCc1ccnc(OCc2cn(-c3ccc(F)c(OC(F)F)c3)nn2)n1 ?
< 5.00

// same read-out, input: O=C(O)c1cc(F)c2nc(N3CCC4(C=C(c5c(-c6c(Cl)cncc6Cl)noc5C5CC5)C4)CC3)sc2c1
5.11

// same read-out, input: O=C(O)C12CCC(C(=O)N3CC[C@](c4ccc(C(F)(C(F)(F)F)C(F)(F)F)cc4)(S(=O)(=O)c4ccc(F)cc4)C3)(CC1)CC2
< 5.00

// same read-out, input: COc1cnc(C(=O)Nc2cc(F)c(F)c([C@]3(C)C[C@@H](c4c(C)noc4C)SC(N)=N3)c2)cn1
5.30

// same read-out, input: CC[C@]1(C(=O)N2CC[C@](c3ccc(C(F)(C(F)(F)F)C(F)(F)F)cc3)(S(=O)(=O)c3ccc(F)cc3)C2)CC[C@H](C(=O)O)CC1
< 5.00

// same read-out, input: O=C(O)c1cc(C(F)(F)F)c2cc(N3CCC4(C=C(c5c(-c6c(Cl)cncc6Cl)noc5C5CC5)C4)CC3)ccc2n1
5.38

====

The entries below pair molecules with IC50 values for Cytochrome P450 2C8 (Homo sapiens), as found in several publications.
QUANTITY MEASURED: IC50 (µM)

Examples from the recorded data:
>  <SMILES NOTATION>
Cc1ccc(F)c(-c2cc(Nc3ccnc4cn[nH]c34)c(C)cn2)n1

>  <EXPERIMENTAL TARGET>
Cytochrome P450 2C8 (Homo sapiens)

>  <QUANTITY MEASURED>
IC50

>  <VALUE MEASURED>
2.51

$$$$
>  <SMILES NOTATION>
C[C@@H](O[C@H]1CC[C@@H]2CN(C3=CC(=O)CC3)C[C@H]2[C@@H]1c1ccc(F)cc1)c1cc(C(F)(F)F)cc(C(F)(F)F)c1

>  <EXPERIMENTAL TARGET>
Cytochrome P450 2C8 (Homo sapiens)

>  <QUANTITY MEASURED>
IC50

>  <VALUE MEASURED>
58

$$$$
>  <SMILES NOTATION>
C[C@@H]1c2nnn(-c3ncc(F)cn3)c2CCN1C(=O)c1cccc(C(F)(F)F)c1Cl

>  <EXPERIMENTAL TARGET>
Cytochrome P450 2C8 (Homo sapiens)

>  <QUANTITY MEASURED>
IC50

>  <VALUE MEASURED>
9.6

$$$$

I: Cc1c(-c2c(-c3ccc(F)o3)sc3ncnc(O[C@H](Cc4ccccc4OCc4ccnn4CC(F)(F)F)C(=O)O)c23)ccc(OCCN2CCN(C)CC2)c1Cl
II: C#C[C@]1(O)CC[C@H]2[C@@H]3CCC4=Cc5oncc5C[C@]4(C)[C@H]3CC[C@@]21C
Rank I against II by their IC50 values and give the higher one. Respond with the label that goes with your answer.
I

A: O=C(N[C@@H]1CC[C@@]2(S(=O)(=O)c3ccc(F)cc3)c3ccc(C(F)(C(F)(F)F)C(F)(F)F)cc3CC[C@@H]12)C1CCS(=O)(=O)CC1
B: CC(C)COc1ncc(-c2cn(C)c3cc(C(=O)NS(C)(=O)=O)ccc23)cc1Cl
C: CC(C)(C(=O)Nc1nncs1)[C@@H]1c2ccc(-c3ccc(C(=O)N4CCOCC4)cc3)nc2Oc2c(F)cccc21
D: COc1cc2nc([C@@H](CNC(=O)c3c(Cl)cc(-n4cnc(C)n4)cc3Cl)c3cccc(F)c3)[nH]c2cc1Cl
Arrange the 4 molecules by rising IC50, starting with the smallest. Answer by listing the labels in the order asked for.
D, B, C, A
(D: 0.456 µM, B: 1 µM, C: 3.7 µM, A: 6.5 µM)

====

Biological target: Cytochrome P450 2C8 (Homo sapiens, UniProt P10632)
Sequence (P10632 whole entry): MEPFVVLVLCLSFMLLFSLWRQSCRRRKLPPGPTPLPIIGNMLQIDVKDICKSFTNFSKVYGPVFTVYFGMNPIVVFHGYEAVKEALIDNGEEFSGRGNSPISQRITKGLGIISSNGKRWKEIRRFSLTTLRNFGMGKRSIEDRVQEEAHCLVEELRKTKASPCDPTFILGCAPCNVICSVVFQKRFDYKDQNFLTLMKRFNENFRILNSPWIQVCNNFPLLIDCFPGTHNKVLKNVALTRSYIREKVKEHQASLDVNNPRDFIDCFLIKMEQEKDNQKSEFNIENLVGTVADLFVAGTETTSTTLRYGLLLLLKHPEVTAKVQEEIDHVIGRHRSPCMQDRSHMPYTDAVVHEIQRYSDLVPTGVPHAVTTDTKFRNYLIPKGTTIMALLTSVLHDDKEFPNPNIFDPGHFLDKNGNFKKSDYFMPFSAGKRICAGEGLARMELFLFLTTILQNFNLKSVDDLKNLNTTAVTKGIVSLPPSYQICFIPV
The entries below pair compounds with IC50 values for Cytochrome P450 2C8 (Homo sapiens, UniProt P10632), as found in several publications.

>  <SMILES NOTATION>
O=C(CCc1ccc(-c2ccc(O)cn2)cc1)Nc1ccccc1C(=O)O

>  <EXPERIMENTAL TARGET>
Cytochrome P450 2C8 (Homo sapiens, UniProt P10632)

>  <VALUE MEASURED>
8.9 µM

$$$$

Which IC50 is listed for Cc1c(N2CCCC2)nc2ccc(Br)cc2c1C(=O)NC[C@H](CCC(=O)O)c1ccccc1Cl ?
> 20 µM

// same read-out, input: O=C(O)c1ccc2c(C(=O)c3ccccc3)cc(C(=O)c3ccccc3)c-2cc1
1.5 µM

// same read-out, input: Cc1cc(C)n(CC(=O)N2CCc3c2ccc(-c2cn(C)c4ncnc(N)c24)c3F)n1
> 25 µM

// same read-out, input: CC(C)OC(=O)[C@@H](Cc1ncccn1)OC(=O)Nc1c2c(cc3c1CCC3)CCC2
> 30 µM

// same read-out, input: CC(C)(O)C(=O)N[C@@H]1CC[C@@]2(S(=O)(=O)c3ccc(F)cc3)c3ccc(C(F)(C(F)(F)F)C(F)(F)F)cc3CC[C@@H]12
12 µM

====

Target: Cytochrome P450 2C8 (Homo sapiens)
Sequence (P10632 whole entry): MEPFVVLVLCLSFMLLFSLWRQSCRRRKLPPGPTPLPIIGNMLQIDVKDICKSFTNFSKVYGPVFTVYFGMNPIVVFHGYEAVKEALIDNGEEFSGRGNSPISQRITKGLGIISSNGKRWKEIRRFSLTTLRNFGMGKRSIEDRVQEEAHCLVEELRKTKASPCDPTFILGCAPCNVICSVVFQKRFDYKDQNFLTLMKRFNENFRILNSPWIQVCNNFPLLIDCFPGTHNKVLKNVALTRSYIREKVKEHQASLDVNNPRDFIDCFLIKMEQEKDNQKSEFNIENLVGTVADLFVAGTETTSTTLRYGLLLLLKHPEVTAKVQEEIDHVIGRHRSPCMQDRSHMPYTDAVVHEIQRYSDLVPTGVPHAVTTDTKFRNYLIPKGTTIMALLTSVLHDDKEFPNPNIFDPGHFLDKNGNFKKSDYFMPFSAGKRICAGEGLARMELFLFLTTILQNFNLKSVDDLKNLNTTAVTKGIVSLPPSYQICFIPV
The entries below pair compounds with IC50 values for Cytochrome P450 2C8 (Homo sapiens), as found in several publications.

Examples from the recorded data:
>  <COMPOUND>
Nc1ncccc1-c1nc2cccnc2n1-c1ccc(CC(=O)Nc2ccccc2)cc1

>  <IC50>
> 10 µM

$$$$
>  <COMPOUND>
C(=C\CN(C[C@H]1Cc2ccccc2CN1)[C@H]1CCCc2cccnc21)/CNCC1CCOCC1

>  <IC50>
< 5 µM

$$$$
>  <COMPOUND>
O=C(C1CCS(=O)(=O)CC1)N1CC[C@@]2(S(=O)(=O)c3ccc(F)cc3)c3ccc(C(F)(C(F)(F)F)C(F)(F)F)nc3CC[C@@H]12

>  <IC50>
16 µM

$$$$

Kindly consider the entry below.
Lab request: please report IC50 under test system Cytochrome P450 2C8 (Homo sapiens) for O=C(CCc1cnc(-c2ccc(O)cn2)s1)Nc1ccccc1C(=O)O
20.3 µM
